tested on: Escherichia coli; assay: Antibacterial activity against Escherichia coli Top10 without harboring AmpC assessed as cefotaxime MIC by CLSI protocol based method (reference value: 0.125 ug/ml); assay type: functional
ENDPOINT LABEL: MIC (µg/mL)
Supply the numeric figure in µg/mL, leaving out any unit text.

Worked cases, answers included:
O=C1N2C[C@@H](CC[C@H]2Cn2nccn2)N1OS(=O)(=O)[O-].[Na+]; 0.125
C[Si](C)(C)c1cn(C[C@@H]2CC[C@@H]3CN2C(=O)N3OS(=O)(=O)[O-])nn1.[Na+]; 0.125
O=C1N2C[C@@H](CC[C@H]2Cn2ccnn2)N1OS(=O)(=O)[O-].[Na+]; 0.125
O=C1N2C[C@@H](CC[C@H]2Cn2cc(CN3CCOCC3)nn2)N1OS(=O)(=O)[O-].[Na+]; 0.125
NCc1cn(C[C@@H]2CC[C@@H]3CN2C(=O)N3OS(=O)(=O)O)nn1.O=C(O)C(F)(F)F; 0.125

So what does the record say about MIC for CC(C)(C)OC(=O)NCc1cn(C[C@@H]2CC[C@@H]3CN2C(=O)N3OS(=O)(=O)[O-])nn1.[Na+] ?
0.125

So what does the record say about MIC for O=C(NC1CCNCC1)[C@@H]1CC[C@@H]2CN1C(=O)N2OS(=O)(=O)[O-].[Na+] ?
0.125

So what does the record say about MIC for CC(C)(C)OC(=O)NCCC(=O)Nc1ccc(-c2cn(C[C@@H]3CC[C@@H]4CN3C(=O)N4OS(=O)(=O)[O-])nn2)cc1.[Na+] ?
0.125

So what does the record say about MIC for NCCC(=O)Nc1ccc(-c2cn(C[C@@H]3CC[C@@H]4CN3C(=O)N4OS(=O)(=O)O)nn2)cc1.O=C(O)C(F)(F)F ?
0.25

So what does the record say about MIC for CN(C)Cc1cn(C[C@@H]2CC[C@@H]3CN2C(=O)N3OS(=O)(=O)[O-])nn1.[Na+] ?
0.125

So what does the record say about MIC for O=C1N2C[C@@H](CC[C@H]2Cn2cc(-c3cccnc3)nn2)N1OS(=O)(=O)[O-].[Na+] ?
0.125

====

Some compounds, each annotated with its measured MIC.
system: Escherichia coli; experiment: Antibacterial activity against Escherichia coli Top10 without harboring CTX-M-15 assessed as amoxicillin MIC by CLSI protocol based method (reference value: 8 ug/ml); type: functional
Form field: result (number plus unit)

Worked cases, answers included:
NCc1cn(C[C@@H]2CC[C@@H]3CN2C(=O)N3OS(=O)(=O)O)nn1.O=C(O)C(F)(F)F; 4 µg/mL
NCCC(=O)Nc1ccc(-c2cn(C[C@@H]3CC[C@@H]4CN3C(=O)N4OS(=O)(=O)O)nn2)cc1.O=C(O)C(F)(F)F; 4 µg/mL
O=C(O)CCc1cn(C[C@@H]2CC[C@@H]3CN2C(=O)N3OS(=O)(=O)[O-])nn1.[Na+]; 2 µg/mL
COCc1cn(C[C@@H]2CC[C@@H]3CN2C(=O)N3OS(=O)(=O)[O-])nn1.[Na+]; 8 µg/mL
O=C1N2C[C@@H](CC[C@H]2Cn2ccnn2)N1OS(=O)(=O)[O-].[Na+]; 8 µg/mL
O=C1N2C[C@@H](CC[C@H]2Cn2cc(-c3cccnc3)nn2)N1OS(=O)(=O)[O-].[Na+]; 2 µg/mL
O=C(O)C(F)(F)F.O=C1N2C[C@@H](CC[C@H]2Cn2cc(C3CCNCC3)nn2)N1OS(=O)(=O)O; 4 µg/mL

So what does the record say about MIC for O=C1N2C[C@@H](CC[C@H]2Cn2nccn2)N1OS(=O)(=O)[O-].[Na+] ?
4 µg/mL

====

system: Enterobacter cloacae; assay: Inhibition of Enterobacter cloacae CTX-M-15 expressed in Escherichia coli BL21 DE3 assessed as K2/Ki ratio using nitrocefin as substrate by spectrophotometry
ENDPOINT LABEL: Ratio (M⁻¹ s⁻¹)
Supply the numeric figure in M⁻¹ s⁻¹, leaving out any unit text.

Worked cases, answers included:
O=C(O)CCc1cn(C[C@@H]2CC[C@@H]3CN2C(=O)N3OS(=O)(=O)[O-])nn1.[Na+]; 110
COCc1cn(C[C@@H]2CC[C@@H]3CN2C(=O)N3OS(=O)(=O)[O-])nn1.[Na+]; 120
NCc1cn(C[C@@H]2CC[C@@H]3CN2C(=O)N3OS(=O)(=O)O)nn1.O=C(O)C(F)(F)F; 88
NCCC(=O)Nc1ccc(-c2cn(C[C@@H]3CC[C@@H]4CN3C(=O)N4OS(=O)(=O)O)nn2)cc1.O=C(O)C(F)(F)F; 150
O=C1N2C[C@@H](CC[C@H]2Cn2cc(CN3CCOCC3)nn2)N1OS(=O)(=O)[O-].[Na+]; 100

Quick check: Ratio on Enterobacter cloacae, item C[Si](C)(C)c1cn(C[C@@H]2CC[C@@H]3CN2C(=O)N3OS(=O)(=O)[O-])nn1.[Na+] ?
400

====

tested on: Escherichia coli; experiment: Antibacterial activity against Escherichia coli Top10 without harboring CTX-M-15 assessed as amoxicillin MIC by CLSI protocol based method (reference value: 8 ug/ml); format: functional
Some compounds, each annotated with its measured MIC.
Form field: result (number plus unit)

Worked cases, answers included:
O=C(NC1CCNCC1)[C@@H]1CC[C@@H]2CN1C(=O)N2OS(=O)(=O)[O-].[Na+]; 2 µg/mL
CC(C)(C)OC(=O)N1CCC(c2cn(C[C@@H]3CC[C@@H]4CN3C(=O)N4OS(=O)(=O)[O-])nn2)CC1.[Na+]; 8 µg/mL

Okay, now this compound:
So what does the record say about MIC for CC(C)(C)OC(=O)NCc1cn(C[C@@H]2CC[C@@H]3CN2C(=O)N3OS(=O)(=O)[O-])nn1.[Na+] ?
8 µg/mL

====

experiment: Inhibition of TEM1 (unknown origin) expressed in Escherichia coli BL21 DE3 assessed as K2/Ki ratio using nitrocefin as substrate by spectrophotometry
Some compounds, each annotated with its measured Ratio.
Supply the numeric figure in M⁻¹ s⁻¹, leaving out any unit text.

Worked cases, answers included:
CC(C)(C)OC(=O)NCc1cn(C[C@@H]2CC[C@@H]3CN2C(=O)N3OS(=O)(=O)[O-])nn1.[Na+]; 2800
CC(C)(C)OC(=O)NCCC(=O)Nc1ccc(-c2cn(C[C@@H]3CC[C@@H]4CN3C(=O)N4OS(=O)(=O)[O-])nn2)cc1.[Na+]; 3700
O=C1N2C[C@@H](CC[C@H]2Cn2nccn2)N1OS(=O)(=O)[O-].[Na+]; 2600
O=C(O)CCc1cn(C[C@@H]2CC[C@@H]3CN2C(=O)N3OS(=O)(=O)[O-])nn1.[Na+]; 720
NC(=O)[C@@H]1CC[C@@H]2CN1C(=O)N2OS(=O)(=O)[O-].[Na+] [AVIBACTAM SODIUM]; 88000
C[Si](C)(C)c1cn(C[C@@H]2CC[C@@H]3CN2C(=O)N3OS(=O)(=O)[O-])nn1.[Na+]; 370
O=C1N2C[C@@H](CC[C@H]2Cn2cc(CN3CCOCC3)nn2)N1OS(=O)(=O)[O-].[Na+]; 1200

Okay, now this compound:
So what does the record say about Ratio for O=C1N2C[C@@H](CC[C@H]2Cn2cc(-c3ccccc3)nn2)N1OS(=O)(=O)[O-].[Na+] ?
4700

====

test system: Escherichia coli; assay: Antibacterial activity against Escherichia coli Top10 without harboring CTX-M-15 assessed as amoxicillin MIC by CLSI protocol based method (reference value: 8 ug/ml); assay type: functional
ENDPOINT LABEL: MIC (µg/mL)
Supply the numeric figure in µg/mL, leaving out any unit text.

Worked cases, answers included:
NC(=O)[C@@H]1CC[C@@H]2CN1C(=O)N2OS(=O)(=O)[O-].[Na+] [AVIBACTAM SODIUM]; 2
O=C([O-])[C@H]1/C(=C/CO)O[C@@H]2CC(=O)N21.[Na+] [CLAVULANIC ACID (SODIUM)]; 8
CN(C)Cc1cn(C[C@@H]2CC[C@@H]3CN2C(=O)N3OS(=O)(=O)[O-])nn1.[Na+]; 4

So what does the record say about MIC for CC(C)(C)OC(=O)NCCC(=O)Nc1ccc(-c2cn(C[C@@H]3CC[C@@H]4CN3C(=O)N4OS(=O)(=O)[O-])nn2)cc1.[Na+] ?
8

So what does the record say about MIC for C[Si](C)(C)c1cn(C[C@@H]2CC[C@@H]3CN2C(=O)N3OS(=O)(=O)[O-])nn1.[Na+] ?
8

So what does the record say about MIC for O=C1N2C[C@@H](CC[C@H]2Cn2cc(-c3ccccc3)nn2)N1OS(=O)(=O)[O-].[Na+] ?
8

So what does the record say about MIC for O=C1N2C[C@@H](CC[C@H]2Cn2cc(CN3CCOCC3)nn2)N1OS(=O)(=O)[O-].[Na+] ?
8

====

Some compounds, each annotated with its measured MIC.
tested on: Escherichia coli; experiment: Antibacterial activity against Escherichia coli Top10 without harboring KPC-2 assessed as aztreonam MIC by CLSI protocol based method (reference value: 0.5 ug/ml); type: functional
Supply the numeric figure in µg/mL, leaving out any unit text.

Worked cases, answers included:
O=C([O-])[C@H]1/C(=C/CO)O[C@@H]2CC(=O)N21.[Na+] [CLAVULANIC ACID (SODIUM)]; 0.5
O=C1N2C[C@@H](CC[C@H]2Cn2cc(-c3cccnc3)nn2)N1OS(=O)(=O)[O-].[Na+]; 0.25

Okay, now this compound:
So what does the record say about MIC for O=C1N2C[C@@H](CC[C@H]2Cn2cc(-c3ccccc3)nn2)N1OS(=O)(=O)[O-].[Na+] ?
0.25
